Target: ERβ LBD (Homo sapiens, UniProt Q92731)
Construct: LexA DBD-ERβ LBD (264–510)
Sequence (Q92731 264-510): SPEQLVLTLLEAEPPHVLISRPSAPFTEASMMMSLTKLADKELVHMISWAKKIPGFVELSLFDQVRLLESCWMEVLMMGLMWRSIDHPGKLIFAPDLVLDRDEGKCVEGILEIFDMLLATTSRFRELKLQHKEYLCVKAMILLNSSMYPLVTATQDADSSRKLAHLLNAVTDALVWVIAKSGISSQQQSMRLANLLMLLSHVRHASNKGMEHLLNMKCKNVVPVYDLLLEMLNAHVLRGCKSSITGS
Sequence (Q15788 613-773 partner limits assumed): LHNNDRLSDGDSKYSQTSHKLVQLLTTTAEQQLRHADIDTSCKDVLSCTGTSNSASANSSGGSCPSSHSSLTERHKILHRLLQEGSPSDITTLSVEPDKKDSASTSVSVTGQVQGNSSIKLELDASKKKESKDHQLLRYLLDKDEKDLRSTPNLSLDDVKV
Assay: ERβ-SRC1 agonistic yeast two hybrid (Y2H) assay, β-galactosidase activity
Conditions: Y2H ERβ-SRC1, yeast L40, triplicates
pEC50: −log10 of the molar value.
Property: pEC50

Oc1ccc([C@H]2COc3cc(O)ccc3C2)cc1 [(S)-equol]
6.30
